System: RPMI-8226
Test: NCI tumour cell line growth inhibition, 48 h
The source made the active and inactive calls. Rule as the data show it: active = GI50 up to about 1.1 µM and inactive = higher. Numbered stars: 1 amine (or outer) side, 2 acyl side, 3 side chain; on linkers, the order of the positions; unused ones are H or OH. Bridge positions count the residues as written; N and C are the ends. Square brackets hold non-standard residues; d marks the D form. Peptide text beside a SMILES is read from it. X58 = COc1c(N[*:1])cccc1C(=O)O[C@H](C(=O)[C@H](C)C(=O)[*:2])C(C)C; X57 = CC(C)C[C@H](C(=O)[*:2])C(C)C(=O)C1CCCN1[*:1]; NMeY = CN[C@@H](Cc1ccc(O)cc1)C(=O)O; Lac = C[C@H](O)C(=O)O
Classes used: 1 (yes) (active), 0 (no) (inactive)

{"Compound": "CCOC(=O)c1cc(Br)c(-c2cc(C)co2)[nH]1", "Answer Label": "0 (no)"}
{"Compound": "O=C1CC(Nc2ccccc2)c2c(Cl)sc(Cl)c21 (stereo unspecified)", "Answer Label": "1 (yes)"}
{"Compound": "COc1ccc2c(c1)C1Oc3ccccc3CC1CO2 (stereo unspecified)", "Answer Label": "0 (no)"}
{"Compound": "COc1cc2c[n+](C)c3c4cc(OC)c(OC)cc4c(OCc4ccccc4)cc3c2cc1OC", "Answer Label": "0 (no)"}
{"Compound": "O=C1CC(=O)N(c2ccccc2)N1/C(=C/c1ccccc1)c1ccccc1", "Answer Label": "0 (no)"}
{"Compound": "CCOc1ccccc1NC(=O)CC(C(=O)OC)C(=O)C(=O)OC (stereo unspecified)", "Answer Label": "0 (no)"}
{"Compound": "COc1ccc(C[C@H]2C(=O)O[C@H](C)[C@H](NC(=O)[C@@H](CC(C)C)C(C)C(=O)C3CCCN3C(=O)[C@H](C)O)C(=O)Nc3cccc(c3OC)C(=O)O[C@@H](C(C)C)C(=O)[C@H](C)C(=O)N[C@@H](CC(C)C)C(=O)N3CCC[C@H]3C(=O)N2C)cc1 (stereo partly specified) (H-[Lac][X57]T[X58]LP[NMeY](Me); ester 3-C)", "Answer Label": "0 (no)"}
{"Compound": "O=S(=O)(/C=C/C=C/S(=O)(=O)c1ccccc1)c1ccccc1", "Answer Label": "1 (yes)"}
{"Compound": "COC(=O)c1ccc2c(c1)S/C(=C/c1ccc3ccc4cccc5ccc1c3c45)S2", "Answer Label": "0 (no)"}
{"Compound": "Cc1cccc(C)c1NC(=S)N/C=C(\\C#N)C(N)=O", "Answer Label": "0 (no)"}
{"Compound": "CNc1ncnc2c1ncn2C1C=CC(COS(N)(=O)=O)C1 (stereo unspecified)", "Answer Label": "0 (no)"}

* * *

Tested on: OVCAR-5
Test: NCI tumour cell line growth inhibition, 48 h
Counter-ions that a name gives are not always drawn. The source made the active and inactive calls. No stated cut-off is given here; in the data, active = GI50 up to about 1.1 µM and inactive = higher.

{"Molecule": "CCN1/C(=C/c2ccc3ccccc3[n+]2CC)C=Cc2ccccc21", "Assayed System": "OVCAR-5", "GI50": "5.37 µM (inactive)"}
{"Molecule": "O=C(O)/C=C(/C(=O)O)C12CCN3CC4=CCOC5CC(=O)NC1C5C4CC32 (stereo unspecified)", "Assayed System": "OVCAR-5", "GI50": "> 100 µM (inactive)"}
{"Molecule": "O=c1c(O)c(-c2ccc(O)c(O)c2)oc2cc(O)cc(O)c12", "Assayed System": "OVCAR-5", "GI50": "> 100 µM (inactive)"}
{"Molecule": "COC(C)(C)CCc1[nH]c2ccccc2c1CC(=O)NCCc1cncn1C", "Assayed System": "OVCAR-5", "GI50": "> 100 µM (inactive)"}
{"Molecule": "C=CC(=O)Nc1ccc(NC(=O)C=C)c2c1C(=O)c1ccccc1C2=O", "Assayed System": "OVCAR-5", "GI50": "> 100 µM (inactive)"}
{"Molecule": "O=c1ncccn1[C@@H]1O[C@H](CO)[C@@H](O)[C@@H]1F", "Assayed System": "OVCAR-5", "GI50": "> 100 µM (inactive)"}
{"Molecule": "O=S(O)CCCCSSCc1ccccc1CSSCCCCS(=O)O", "Assayed System": "OVCAR-5", "GI50": "95.1 µM (inactive)"}
{"Molecule": "CCOP(=O)(OCC)/C(C#N)=C/c1ccc[nH]1", "Assayed System": "OVCAR-5", "GI50": "> 100 µM (inactive)"}
{"Molecule": "COC(=O)c1c2c(cc3c1CC1(Cc4cc5c(cc4C1)CCC5)C3)CCC2", "Assayed System": "OVCAR-5", "GI50": "> 100 µM (inactive)"}
{"Molecule": "Cc1nc(C(N)=S)sc1C(=O)CC(=O)C(=O)Nc1ccc(Br)cc1", "Assayed System": "OVCAR-5", "GI50": "> 100 µM (inactive)"}
{"Molecule": "Cc1ccc(/C=C2\\CCCC(CN3CCCCC3)C2=O)cc1 (stereo unspecified)", "Assayed System": "OVCAR-5", "GI50": "15 µM (inactive)"}
{"Molecule": "CC(=O)O[C@H]1CCC2[C@@H]3CCC4=C(O)c5nocc5C[C@]4(C)C3CC[C@@]21C (stereo partly specified)", "Assayed System": "OVCAR-5", "GI50": "> 100 µM (inactive)"}
{"Molecule": "CCCNC(=O)Cn1c2c(c3ccccc31)CCCC2", "Assayed System": "OVCAR-5", "GI50": "> 100 µM (inactive)"}
{"Molecule": "O=C(Nc1ccc(Cl)c(Cl)c1)OCCN1c2ccccc2Sc2ccccc21", "Assayed System": "OVCAR-5", "GI50": "> 10 µM (inactive)"}
{"Molecule": "CN[C@@H](C)[C@@H](O)c1ccccc1 [PSEUDOEPHEDRINE HYDROCHLORIDE]", "Assayed System": "OVCAR-5", "GI50": "> 100 µM (inactive)"}
{"Molecule": "CCOC(=O)Oc1cc2c(c(OC)c1OC)-c1ccc(OC)c(=O)cc1C(NC(C)=O)CC2 (stereo unspecified)", "Assayed System": "OVCAR-5", "GI50": "2.26 µM (inactive)"}
{"Molecule": "CCOC(=O)N1CCN(Cc2cc(=O)n3ccc(C)cc3n2)CC1", "Assayed System": "OVCAR-5", "GI50": "> 100 µM (inactive)"}
{"Molecule": "C[C@]12CC[C@H](O)CC1=CC[C@@H]1C2CC[C@]2(C)Nc3c(cnn3-c3ccc(F)cc3)CC12 (stereo partly specified)", "Assayed System": "OVCAR-5", "GI50": "> 100 µM (inactive)"}
{"Molecule": "CC(C)N1CN(c2ccccc2)C2(CCN(CCCC(=O)c3ccc(F)cc3)CC2)C1=O", "Assayed System": "OVCAR-5", "GI50": "5.42 µM (inactive)"}
{"Molecule": "C/C(=N/NC(=S)Nc1ccccc1Cl)c1cccc(/C(C)=N\\NC(=S)Nc2ccccc2Cl)n1", "Assayed System": "OVCAR-5", "GI50": "> 100 µM (inactive)"}
{"Molecule": "S=c1sc2c(Cl)ncnc2n1-c1ccccc1", "Assayed System": "OVCAR-5", "GI50": "22.9 µM (inactive)"}
